# system: human CCR5 chemokine receptor (Homo sapiens)
# Construct: expressed in transfected cells; host or cells: NIH 3T3 cells (murine), membranes
# Sequence (P51681 whole entry): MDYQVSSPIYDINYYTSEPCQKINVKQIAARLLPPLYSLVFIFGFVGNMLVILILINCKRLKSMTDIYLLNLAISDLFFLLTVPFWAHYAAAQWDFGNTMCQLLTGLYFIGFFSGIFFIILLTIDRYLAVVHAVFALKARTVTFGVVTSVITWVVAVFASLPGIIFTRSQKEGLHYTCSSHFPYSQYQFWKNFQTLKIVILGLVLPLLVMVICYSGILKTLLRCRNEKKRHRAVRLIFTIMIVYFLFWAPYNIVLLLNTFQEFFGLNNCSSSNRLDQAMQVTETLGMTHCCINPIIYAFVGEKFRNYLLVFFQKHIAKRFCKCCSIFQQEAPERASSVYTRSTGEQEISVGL
# assay.procedure: CCR5 membrane binding assay (inhibition of RANTES binding)
# run.conditions: 125I-RANTES, membranes from NIH 3T3 cells expressing human CCR5
property.measured: Ki (nM)

P = Cc1ccnc(C)c1C(=O)N1CCC(N2CCN(C(c3ccccc3)c3ccccc3)[C@@H](C)C2)CC1
Q = CC[C@@H](c1ccc(OC(F)(F)F)cc1)N1CCN(C2CCN(C(=O)c3c(C)ncnc3C)CC2)C[C@@H]1C
R = Cc1cccc(C)c1C(=O)N1CCC(N2CCN([C@@H](C)c3ccc(-c4ccccc4)cc3)[C@@H](C)C2)CC1
Asked: Order all 3 entries above by recorded Ki, highest first, lowest last. Form entry: ranked labels (order as requested).
Given back: R, Q, P
